experiment: Plasma pharmacokinetics, Phase I Study (LC-MS/MS of DFP-11207 metabolites); conditions: human, plasma, po, 440 mg/m2
value.type: Tmax (h)

compound	Tmax [h]
Oc1cc(O)c(Cl)cn1 [CDHP, 5-chloro-2,4-dihydroxypyridine]	26

(A) O=C(O)c1cc(O)nc(O)c1 [CTA, citrazinic acid]
(B) O=c1[nH]cc(F)c(=O)[nH]1 [5-FU, 5-fluorouracil, reference compound]
(C) CCOCn1cc(F)c(=O)[nH]c1=O [EM-FU, 1-ethoxymethyl-5-fluorouracil]
Query: Arrange items by their Tmax values in increasing order. In plain terms: list the labels in the order you were asked to.
Result: A, B, C
